Measured values drawn from patent US11584736B2 for this set.

molecular target: hP2Y14R (Homo sapiens, UniProt Q15391); construct: expressed in transfected cells; experiment: Competitive fluorescent binding assay, flow cytometry of whole hP2Y14R-CHO cells; details: Table 2; hP2Y14R-CHO cells, fluorescent antagonist tracer 20 nM, mean ± SEM (n = 3-5); read-out: IC50
Sequence (Q15391 whole entry): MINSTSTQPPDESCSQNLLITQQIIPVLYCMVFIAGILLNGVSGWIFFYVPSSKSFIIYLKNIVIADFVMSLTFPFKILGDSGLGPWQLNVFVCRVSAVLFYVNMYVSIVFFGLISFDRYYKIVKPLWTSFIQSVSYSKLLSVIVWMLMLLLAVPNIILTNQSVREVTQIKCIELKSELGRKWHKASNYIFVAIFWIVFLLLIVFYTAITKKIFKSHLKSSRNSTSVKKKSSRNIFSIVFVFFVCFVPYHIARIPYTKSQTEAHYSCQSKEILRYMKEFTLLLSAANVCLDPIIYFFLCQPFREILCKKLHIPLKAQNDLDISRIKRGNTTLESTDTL
Please respond with TRUE when measured IC50 is strictly beneath 3000 nM, and with FALSE in all other cases.

Examples with answers:
| Molecule | Cat |
| --- | --- |
| O=C(O)c1cc(-c2ccc(C3CCNCC3)cc2)cc(-c2cn(-c3ccc(C(F)(F)F)cc3)nn2)c1 [Compound 25] | TRUE |
| NCCCNC(=O)c1ccc(-c2cc(C(=O)O)cc(-c3cn(-c4ccc(C(F)(F)F)cc4)nn3)c2)s1 [Compound 26] | TRUE |
| NC(=O)c1ccc(-c2cc(C(=O)O)cc(-c3cn(-c4ccc(C(F)(F)F)cc4)nn3)c2)cc1 [Compound 24] | TRUE |
| O=C(O)c1cc(-c2ccc(C3CCNCC3)cc2)c2nc(-c3ccc(C(F)(F)F)cc3)[nH]c2c1 [Compound 35] | FALSE |
| NC(=O)c1ccc(-c2cc(C(=O)O)cc(C(=O)Nc3ccc(C(F)(F)F)cc3)c2)cc1 [Compound 29] | FALSE |

Continue with the molecule presented below.
I'd appreciate it if you could check whether O=C(O)c1[nH]c(-c2ccc(C3=CCNCC3)cc2)cc1-n1cc(-c2ccc(C(F)(F)F)cc2)nn1 [Compound 33] has IC50 smaller than 3000 nM. FALSE

* * *

Molecular target: mP2Y14R (Mus musculus)
Sequence (Q9ESG6 1-338): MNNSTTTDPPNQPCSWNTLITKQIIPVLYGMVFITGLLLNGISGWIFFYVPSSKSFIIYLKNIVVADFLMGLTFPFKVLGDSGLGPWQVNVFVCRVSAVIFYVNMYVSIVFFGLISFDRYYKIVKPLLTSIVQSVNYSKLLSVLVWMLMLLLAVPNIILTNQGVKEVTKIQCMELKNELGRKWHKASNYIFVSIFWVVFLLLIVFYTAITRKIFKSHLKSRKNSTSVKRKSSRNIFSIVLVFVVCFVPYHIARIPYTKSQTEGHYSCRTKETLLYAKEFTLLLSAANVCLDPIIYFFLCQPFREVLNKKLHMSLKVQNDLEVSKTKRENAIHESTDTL
Measured property: IC50 (nM)
All answers are understood in nM, so give the number only.

So what's the measured IC50 for this one? O=C(O)c1cc(-c2ccc(N3CCNCC3)cc2)cc(-n2cc(-c3ccc(C(F)(F)F)cc3)nn2)c1 499

* * *

biological target: hP2Y14R (Homo sapiens); construct: expressed in transfected cells; test: Competitive fluorescent binding assay, flow cytometry of whole hP2Y14R-CHO cells; conditions: Table 1; hP2Y14R-CHO cells, fluorescent antagonist tracer 20 nM, mean ± SEM (n = 3-5); read-out: IC50
Entries and their measured pIC50 follow.
The meaning of pIC50 here: minus log10 of the concentration in molar units.

These recorded examples may help you get a feel for the data.
| Molecule | pIC50 |
| --- | --- |
| CCCN1CCC(c2ccc(-c3cc(C(=O)O)cc4cc(-c5ccc(C(F)(F)F)cc5)ccc34)cc2)CC1 [Compound 7] | 6.88 |
| CN1CCC(c2ccc(-c3cc(C(=O)O)cc4cc(-c5ccc(C(F)(F)F)cc5)ccc34)cc2)CC1 [Compound 5] | 6.71 |
| CCCCCCN1CCC(c2ccc(-c3cc(C(=O)O)cc4cc(-c5ccc(C(F)(F)F)cc5)ccc34)cc2)CC1 [Compound 9] | 6.88 |
| O=C(O)c1cc(-c2ccc(C34CCN(CC3)CC4)cc2)c2ccc(-c3ccc(C(F)(F)F)cc3)cc2c1 [Compound 17] | 7.70 |
| CC(C)(C)OC(=O)N1CCC(c2ccc(-c3cc(C(=O)O)cc4cc(-c5ccc(C(F)(F)F)cc5)ccc34)cc2)CC1 [Compound 10] | 5.61 |

So what's the measured pIC50 for this one? NCCOCCOCCOCCOCCOCCOCCC(=O)N1CCC(c2ccc(-c3cc(C(=O)O)cc4cc(-c5ccc(C(F)(F)F)cc5)ccc34)cc2)CC1 [Compound 12] 6.02

So what's the measured pIC50 for this one? C#CCN1CCC(c2ccc(-c3cc(C(=O)O)cc4cc(-c5ccc(C(F)(F)F)cc5)ccc34)cc2)CC1 [Compound 6] 6.86

So what's the measured pIC50 for this one? N#Cc1cc(-c2ccc(C3CCNCC3)cc2)cc(-n2cc(-c3ccc(C(F)(F)F)cc3)nn2)c1 [Compound 16] 4.38

* * *

Entries and their measured pIC50 follow.
target: hP2Y14R (Homo sapiens, UniProt Q15391); construct: expressed in transfected cells; assay: Competitive fluorescent binding assay, flow cytometry of whole hP2Y14R-CHO cells; details: Table 3 comparison column; values identical to Tables 1 and 2; read-out: hP2Y14R, IC50
The meaning of pIC50 here: minus log10 of the concentration in molar units.

| Compound string | Measured property | Value |
| --- | --- | --- |
| O=C(O)c1cc(-c2ccc(N3CCNCC3)cc2)cc(-n2cc(-c3ccc(C(F)(F)F)cc3)nn2)c1 | pIC50 | 6.63 |

Now turn to the next compound.
So what's the measured pIC50 for this one? O=C(O)c1cc(-c2ccc(C3CCNCC3)cc2)cc(-c2cn(-c3ccc(C(F)(F)F)cc3)nn2)c1 6.19
